Documented inhibition across a set of molecules
# METHOD_SUMMARY: growth inhibition of non-replicating M. tuberculosis (AID 488890);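 also: plate controls were DMSO cells for no effect and high antibiotic wells for full effect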
# PROTOCOL_CONDITIONS: Mycobacterium tuberculosis non-replicating, at 25 µM, stronger effect = higher value
The whole screen tested about 320,000 compounds, of which about 1,300 (0.41%) were called active. Not shown: some 3% with an inconclusive outcome. A selection follows. Entries with a potency or affinity are not part of this list.

MOLECULE: CCOc1ccccc1N1CCN(CC(O)COC2CCCc3ccccc32)CC1 (stereo not drawn)
ASSAY_RESULT: 59.7%
--
MOLECULE: COCCNC(=O)C(c1ccc(O)cc1)N(Cc1cccs1)C(=O)CCC(=O)Nc1ccccn1 (stereo not drawn)
ASSAY_RESULT: 7.81%
--
MOLECULE: CN1/C(=C\C(=O)COc2ccc3c(c2)OCO3)C(C)(C)c2ccccc21
ASSAY_RESULT: 43%
--
MOLECULE: Cc1ccc(CC(=O)NCCCc2ccccc2)cc1
ASSAY_RESULT: 21.6%
--
MOLECULE: CCCCNC(=O)Cc1ccc(Br)cc1
ASSAY_RESULT: 74%

Field inhibition (entry CN1/C(=C\C(=O)COC(=O)CN2C(=O)C3CC=CCC3C2=O)C(C)(C)c2ccccc21 (stereo not drawn) ) reads 19.7%

Field inhibition (entry `CCOc1cc(/C=N/NC(=O)c2ccc3c(c2)OCCO3)cc(Br)c1O` ) reads 11.1%

Field inhibition (entry `O=C(COc1ccccc1-c1ccccc1)c1ccccc1` ) reads 50.1%

Field inhibition (entry `Cc1nnc(-c2ccccc2)nc1N(C)C` ) reads 21.8%

Field inhibition (entry `CN1/C(=C\C(=O)COC(=O)c2ccco2)C(C)(C)c2ccccc21` ) reads 64.9%

Field inhibition (entry `O=C(N/N=C/c1ccccc1)c1ccc2c(c1)OCO2` ) reads 51.5%

Field inhibition (entry `O=C(NCCCCc1ccccc1)c1ccc(Br)o1` ) reads 45.4%

Field inhibition (entry `COc1cccc(-c2nc(CS(=O)(=O)CC(=O)NCCCN3CCN(C)CC3)c(C)o2)c1` ) reads -1.26%

Field inhibition (entry `O=C(NCC1CCCCC1)c1cccc([N+](=O)[O-])c1` ) reads 69.2%

Field inhibition (entry Cc1cc(C)cc(NC(=O)C2CCCN(c3ncccn3)C2)c1 (stereo not drawn) ) reads 0.57%

----------
# METHOD_SUMMARY: growth inhibition of non-replicating M. tuberculosis (AID 488890);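 also: plate controls were DMSO cells for no effect and high antibiotic wells for full effect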
# PROTOCOL_CONDITIONS: Mycobacterium tuberculosis non-replicating, at 25 µM, stronger effect = higher value
The campaign covered roughly 320,000 compounds. About 1,300 (0.41%) were called active. Another 3% or so got no clear call; they are omitted. The list is a sample of the results. Results with a measured potency or affinity are listed apart.
Documented inhibition across a set of molecules
Please reply with the bare figure in % and do not write the unit itself.

MOLECULE: CC(=O)OCC(=O)Nc1ccc([N+](=O)[O-])cc1Cl
ASSAY_RESULT: -21.2

MOLECULE: Cc1ccccc1-c1nnc(SCC#N)o1
ASSAY_RESULT: 15.7

MOLECULE: CC(=O)N(Cc1ccccc1)Cc1nc2sc(C)c(C)c2c(=O)[nH]1
ASSAY_RESULT: 5.06

Please examine the following record next.
Field inhibition (entry `Cc1ccccc1NC(=O)c1cccc(S(=O)(=O)N2CCOCC2)c1` ) reads -10.8
